biological target: CPG2 enzyme activity of ScFV anti CEA-CPG2; test: Spectrophotometric CPG2 enzyme inhibition assay (methotrexate hydrolysis, absorbance at 320 nm); format: biochemical, Psuedomonas; settings: methotrexate substrate 60 μM, 37° C., pH 7.3; listed as formula II
pIC50: −log10 of the molar value.
test_readout: pIC50

State its pIC50 for this compound: C[C@@H](NC(=O)[C@@H](N)CO[C@H]1OC(CO)[C@H](O)C(O)C1O)C(=O)Nc1ccc2ccccc2c1C(=O)NC(CCC(=O)O)C(=O)O (stereo partly shown) [CP014]
~3.96

----------
biological target: CPG2 enzyme activity of ScFV anti CEA-CPG2; experiment: Spectrophotometric CPG2 enzyme inhibition assay (methotrexate hydrolysis, absorbance at 320 nm); format: biochemical, Psuedomonas; conditions: methotrexate substrate 60 μM, 37° C., pH 7.3; listed as formula I
test_readout: IC50

Return reported IC50 for target or system CPG2 enzyme activity of ScFV anti CEA-CPG2, item Nc1ccc2ccccc2c1C(=O)N[C@@H](CCC(=O)O)C(=O)O [CP006] .
~88.5 µM
